tested on: Bacteroides thetaiotaomicron; assay: growth AUC relative to DMSO control (median of replicates) (fraction); higher = more growth (less inhibition), active = hit call of the paper; conditions: 20 µM; 24 h
assayEndpoint: growth AUC
Lab note: jot the number down without any unit.

Some solved cases for reference:
compound=CN(C)C(=O)Nc1cc(C(C)(C)C)on1 assayresult=0.995
compound="CCCCCCC(C)OC(=O)C(C)Oc1ccc(Cl)cc1C (stereo not given)" assayresult=1
compound=O=C(O)CNC(=O)c1cnccc1C(F)(F)F assayresult=0.99
compound=CCc1cccc(C)c1N(C(=O)C(=O)O)[C@@H](C)C(=O)O assayresult=0.999
compound=c1ccc2c(c1)ccc1ccccc12 assayresult=1.01
compound=CCNc1nc(N)[nH]c(=O)n1 assayresult=0.998
compound=O=C1NC(=O)c2ccccc21 assayresult=1
compound="COC(=O)C(C)Oc1ccc(Cl)cc1Cl (stereo not given)" assayresult=1.01

Given O=[N+]([O-])c1ccc2c(c1)Cc1ccccc1-2 , state its recorded growth AUC.
0.985

Given NC(=O)C1CO1 (stereo not given) , state its recorded growth AUC.
0.972

Given COc1cc(OC)nc(NC(=O)NS(=O)(=O)N(C)S(C)(=O)=O)n1 , state its recorded growth AUC.
0.982

Given COc1nc(N)nc(NC(C)(C)C)n1 , state its recorded growth AUC.
1.01

Given CC(C)([CH2][Sn]([CH2]C(C)(C)c1ccccc1)([CH2]C(C)(C)c1ccccc1)[O][Sn]([CH2]C(C)(C)c1ccccc1)([CH2]C(C)(C)c1ccccc1)[CH2]C(C)(C)c1ccccc1)c1ccccc1 , state its recorded growth AUC.
1.02

Given Cc1ccc(C(C)NC(=O)[C@@H](NC(=O)OC(C)C)C(C)C)cc1 (stereo not given in full) , state its recorded growth AUC.
0.984

Given CN(C)C(=O)c1cccnc1S(N)(=O)=O , state its recorded growth AUC.
0.988

====

system: Fusobacterium nucleatum subsp. animalis; assay: growth AUC relative to DMSO control (median of replicates) (fraction); higher = more growth (less inhibition), active = hit call of the paper; conditions: 20 µM; 24 h
Assign 1 whenever growth AUC does not fall below 1; assign 0 whenever it does.

molecule=Clc1ccc(Sc2cc(Cl)c(Cl)cc2Cl)cc1 answerlabel=1
molecule=COC(=O)c1c(Cl)ccc(Cl)c1OC answerlabel=0

For the next question, use this molecule.
Kindly determine if growth AUC recorded for C=CCO/N=C(\CCC)C1=C([O-])CC(C)(C)C(C(=O)OC)C1=O.[Na+] (centres undefined) is above or exactly 1.
1

====

tested on: Eubacterium rectale; experiment: growth AUC relative to DMSO control (median of replicates) (fraction); higher = more growth (less inhibition), active = hit call of the paper; conditions: 20 µM; 24 h
Reported growth AUC values for a set of molecules
Lab note: jot the number down without any unit.

molecule=CC1=C(c2ccccc2)C(=O)N(C(C)(C)c2cc(Cl)cc(Cl)c2)CO1 measuredtarget="Eubacterium rectale" assayresult=0.982

Given CN(C)C=O , state its recorded growth AUC.
0.998

Given COC(=O)c1c(Cl)nn(C)c1S(=O)(=O)NC(=O)Nc1nc(OC)cc(OC)n1 , state its recorded growth AUC.
1

Given COCCOc1ccccc1S(=O)(=O)NC(=O)Nc1nc(OC)nc(OC)n1 , state its recorded growth AUC.
0.983

====

system: Bacteroides stercoris; assay: growth AUC relative to DMSO control (median of replicates) (fraction); higher = more growth (less inhibition), active = hit call of the paper; details: 20 µM; 24 h;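 active = AUC reduced over 20% with Padj below 0.05 in at least 2 of 3 replicates; inactive = otherwise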
Pick from YES = active, NO = inactive when you respond.

Assay result, entry CCc1ccc(O)cc1 — outcome?
NO

Assay result, entry O=C(Nc1ccc(F)cc1-c1ccc(Cl)c(Cl)c1)c1cn[nH]c1C(F)F — outcome?
YES

Assay result, entry CCc1cccc(C)c1N(C(=O)C(=O)O)[C@@H](C)C(=O)O — outcome?
NO

Assay result, entry C=CCOC(Cn1ccnc1)c1ccc(Cl)cc1Cl (centres undefined) — outcome?
NO

====

test system: Bacteroides dorei; assay: growth AUC relative to DMSO control (median of replicates) (fraction); higher = more growth (less inhibition), active = hit call of the paper; conditions: 20 µM; 24 h
assayEndpoint: growth AUC
Lab note: jot the number down without any unit.

molecule=COC(=O)c1ccccc1S(=O)(=O)NC(=O)Nc1nc(OC(F)F)cc(OC(F)F)n1 assayresult=0.997
molecule=CP(=O)(O)CCC(=O)O assayresult=1.01

Could you now look at the following compound, please?
Given CSc1nc(NC2CC2)nc(NC(C)(C)C)n1 , state its recorded growth AUC.
1.03

====

test system: Parabacteroides distasonis; assay: growth AUC relative to DMSO control (median of replicates) (fraction); higher = more growth (less inhibition), active = hit call of the paper; settings: 20 µM; 24 h
Reported growth AUC values for a set of molecules
Lab note: jot the number down without any unit.

Some solved cases for reference:
molecule=CCNc1nc(NC(C)(C)C)[nH]c(=O)n1 measuredtarget="Parabacteroides distasonis" assayresult=1.01
molecule=[O-][n+]1nc(-n2ccnc2)nc2ccc(Cl)cc21 measuredtarget="Parabacteroides distasonis" assayresult=0.897
molecule=NC(=O)c1c(Cl)cccc1Cl measuredtarget="Parabacteroides distasonis" assayresult=0.99
molecule=CCc1nc2ncnn2c(N)c1CCCCCC(=O)O.Cl measuredtarget="Parabacteroides distasonis" assayresult=0.99
molecule=O=C(NCc1ncc(C(F)(F)F)cc1Cl)c1c(Cl)cccc1Cl measuredtarget="Parabacteroides distasonis" assayresult=0.971
molecule=O=C(O)Cc1cccc2ccccc12 measuredtarget="Parabacteroides distasonis" assayresult=0.987
molecule="Cc1cc(CC(C)CC(C)(C)C)n(O)c(=O)c1.NCCO (stereo not drawn)" measuredtarget="Parabacteroides distasonis" assayresult=1

Could you now look at the following molecule, please?
Given COC(=O)Cc1cccc2ccccc12 , state its recorded growth AUC.
0.986

====

test system: Streptococcus salivarius; assay: growth AUC relative to DMSO control (median of replicates) (fraction); higher = more growth (less inhibition), active = hit call of the paper; details: 20 µM; 24 h
assayEndpoint: growth AUC
Lab note: jot the number down without any unit.

compound=CCNc1nc(NC(C)(C)C)nc(OC)n1 assayresult=1
compound=CC(C)(C)Nc1nc(N)nc(Cl)n1 assayresult=0.975
compound=CNC(=O)Nc1nc2ccccc2s1 assayresult=0.965
compound=Cc1nn(C)c(Oc2ccccc2)c1/C=N/OCc1ccc(C(=O)OC(C)(C)C)cc1 assayresult=0.993

Given COC1CCC2(CC1)NC(=O)C(c1cc(C)ccc1C)C2O (stereo not given) , state its recorded growth AUC.
1.04

====

Reported growth AUC values for a set of molecules
test system: Clostridium difficile; test: growth AUC relative to DMSO control (median of replicates) (fraction); higher = more growth (less inhibition), active = hit call of the paper; conditions: 20 µM; 24 h
Lab note: jot the number down without any unit.

Some solved cases for reference:
molecule=CN(C)c1ccc(N=NS(=O)(=O)[O-])cc1.[Na+] assayendpoint="growth AUC" assayresult=1.03
molecule=C#CCN(C)c1c(C#N)cnn1-c1nn2c(c1Cl)CCCC2 assayendpoint="growth AUC" assayresult=1
molecule=COC(=O)Nc1ccc(Cl)c(Cl)c1 assayendpoint="growth AUC" assayresult=0.978
molecule=[S] assayendpoint="growth AUC" assayresult=1.01
molecule=C=C1C[C@]23C[C@@]1(O)CC[C@H]2[C@@]12C=C[C@H](O)[C@@](C)(C(=O)O1)[C@H]2[C@@H]3C(=O)O assayendpoint="growth AUC" assayresult=0.931

Could you now look at the following molecule, please?
Given O=C(O)CCCc1c[nH]c2ccccc12 , state its recorded growth AUC.
1.01

====

tested on: Lactobacillus paracasei; experiment: growth AUC relative to DMSO control (median of replicates) (fraction); higher = more growth (less inhibition), active = hit call of the paper; details: 20 µM; 24 h
assayEndpoint: growth AUC
Lab note: jot the number down without any unit.

Some solved cases for reference:
molecule=O=C1NCCN1 measuredtarget="Lactobacillus paracasei" assayendpoint="growth AUC" assayresult=0.904
molecule="COC(=O)c1ccc(C)cc1C1=NC(C)(C(C)C)C(=O)N1 (racemic)" measuredtarget="Lactobacillus paracasei" assayendpoint="growth AUC" assayresult=0.959

Given CCCCCC(C)OC(=O)COc1ccc(Cl)c2cccnc12 (stereo not given) , state its recorded growth AUC.
0.925

Given Cc1ccc(C)c(O)c1 , state its recorded growth AUC.
0.953

Given CCCCC(CC)COC(=O)COc1cc(Cl)c(Cl)cc1Cl (stereo not given) , state its recorded growth AUC.
1.05

====

test system: Streptococcus salivarius; experiment: growth AUC relative to DMSO control (median of replicates) (fraction); higher = more growth (less inhibition), active = hit call of the paper; settings: 20 µM; 24 h
Assign T whenever growth AUC does not fall below 1; assign F whenever it does.

# count of solved cases: 5
molecule=Oc1ccc2nc(-c3cscn3)[nH]c2c1 answerlabel=T
molecule=CCCCCCCC/C=C\CCCCCCCC(N)=O answerlabel=F
molecule=CCN(CC)c1nc(C)cc(=O)[nH]1 answerlabel=T
molecule=CCCOC(=O)NCCCN(C)C answerlabel=F
molecule="CCOC(=O)C(C)N(C(=O)c1ccccc1)c1ccc(Cl)c(Cl)c1 (stereo unspecified)" answerlabel=F

Kindly determine if growth AUC recorded for O=[N+]([O-])c1ccc(Oc2c(Cl)cc(Cl)cc2Cl)cc1 is above or exactly 1.
T

Kindly determine if growth AUC recorded for CCc1ccc(C(c2ccc(CC)cc2)C(Cl)Cl)cc1 is above or exactly 1.
F

Kindly determine if growth AUC recorded for Br[C@@H]1CC[C@@H](Br)[C@@H](Br)CC[C@@H](Br)[C@@H](Br)CC[C@H]1Br is above or exactly 1.
F

Kindly determine if growth AUC recorded for C#CCOc1cc(-n2nc(C(C)(C)C)oc2=O)c(Cl)cc1Cl is above or exactly 1.
F

Kindly determine if growth AUC recorded for CCOC(=O)C1=NOC(c2ccccc2)(c2ccccc2)C1 is above or exactly 1.
F

Kindly determine if growth AUC recorded for CCOc1ccc(C2(C(=O)OC(C#N)c3cccc(Oc4ccccc4)c3)CC2(Cl)Cl)cc1 (stereo unspecified) is above or exactly 1.
F

Kindly determine if growth AUC recorded for COC(=O)c1csc(C)c1S(=O)(=O)NC(=O)n1nc(OC)n(C)c1=O is above or exactly 1.
F

Kindly determine if growth AUC recorded for COc1nc(N)nc(NC(C)(C)C)n1 is above or exactly 1.
T

Kindly determine if growth AUC recorded for Cc1cc(C)cc(OCC(C)Nc2nc(N)nc(C(C)(C)F)n2)c1 (stereo unspecified) is above or exactly 1.
F
